Where these numbers come from: patent US10227331B2

target: VIM-1 (Pseudomonas aeruginosa (strain ATCC 15692 / DSM 22644 / CIP 104116 / JCM 14847 / LMG 12228 / 1C / PRS 101 / PAO1)); assay: biochemical; conditions: CCF2-FA substrate, 2 hours at 25° C
Property measured: IC50
Write the figure, then the unit, nothing else.

Consider the worked cases shown below.
Compound	Result
Nc1nc2cc(C(F)(F)F)cc(-c3ccc(S(=O)(=O)C4CNC4)c(S(N)(=O)=O)c3-c3nnn[nH]3)c2[nH]1	0.813 nM
NS(=O)(=O)c1c(S(=O)(=O)C2CNC2)ccc(-c2ccc3ccncc3c2)c1-c1nnn[nH]1.O=C(O)C(F)(F)F [Example 131, 2,2,2-trifluoroacetate]	0.13 nM
CCCn1c(N)nc2c(-c3ccc(S(=O)(=O)C4CNC4)c(S(N)(=O)=O)c3-c3nn[nH]n3)cccc21	0.407 nM
C[C@@H](CN)S(=O)(=O)c1ccc(-c2cccc3c2nc(N)n3C)c(-c2nn[nH]n2)c1S(N)(=O)=O	0.445 nM
NS(=O)(=O)c1c(S(=O)(=O)C2CNC2)ccc(-c2ccc(NS(=O)(=O)C3CC3)cc2)c1-c1nn[nH]n1	0.112 nM

With those in mind, consider the next compound.
For NCCS(=O)(=O)c1ccc(-c2cnn3c2CCC3)c(-c2nnn[nH]2)c1S(N)(=O)=O.O=C(O)C(F)(F)F [Example 152, 2,2,2-trifluoroacetate] , what is its reported IC50? 2.01 nM
